Data credit: BigSolDB 2.1

- Condition Label: in ethyl formate, 288.15 K
Value Kind: solubility (mole fraction)
Enter a number only.

Reported solubility (mole fraction), compound `Cc1n[nH]c(=S)s1` : ____
0.01

----------
- Condition Label: in ethanol, 283.15 K
Value Kind: solubility (mole fraction)
Enter a number only.

Reported solubility (mole fraction), molecule `Cc1n[nH]c(=S)s1` : ____
0.0105

----------
- Condition Label: in isopropanol, 303.15 K
Value Kind: solubility (mole fraction)
Enter a number only.

Reported solubility (mole fraction), molecule `Cc1n[nH]c(=S)s1` : ____
0.0179

----------
- Condition Label: in ethanol, 323.15 K
Value Kind: solubility (mole fraction)
Enter a number only.

Reported solubility (mole fraction), compound `Cc1n[nH]c(=S)s1` : ____
0.04

----------
- Condition Label: in methyl acetate, 288.15 K
Value Kind: solubility (mole fraction)
Enter a number only.

Reported solubility (mole fraction), molecule `Cc1n[nH]c(=S)s1` : ____
0.0189

----------
- Condition Label: in ethanol, 308.15 K
Value Kind: solubility (mole fraction)

Reported solubility (mole fraction), compound `Cc1n[nH]c(=S)s1` : ____
0.0249

----------
- Condition Label: in isopropanol, 298.15 K
Value Kind: solubility (mole fraction)
Enter a number only.

Reported solubility (mole fraction), compound `Cc1n[nH]c(=S)s1` : ____
0.0143

----------
- Condition Label: in n-pentyl acetate, 313.15 K
Value Kind: solubility (mole fraction)
Enter a number only.

Reported solubility (mole fraction), compound `Cc1n[nH]c(=S)s1` : ____
0.0261

----------
- Condition Label: in n-butanol, 288.15 K
Value Kind: solubility (mole fraction)
Enter a number only.

Reported solubility (mole fraction), molecule `Cc1n[nH]c(=S)s1` : ____
0.00904

----------
- Condition Label: in isobutanol, 293.15 K
Value Kind: solubility (mole fraction)

Reported solubility (mole fraction), compound `Cc1n[nH]c(=S)s1` : ____
0.00881

----------
- Condition Label: in ethyl acetate, 323.15 K
Value Kind: solubility (mole fraction)
Enter a number only.

Reported solubility (mole fraction), molecule `Cc1n[nH]c(=S)s1` : ____
0.038

----------
- Condition Label: in n-pentyl acetate, 298.15 K
Value Kind: solubility (mole fraction)

Reported solubility (mole fraction), molecule `Cc1n[nH]c(=S)s1` : ____
0.0178

----------
- Condition Label: in methanol, 293.15 K
Value Kind: solubility (mole fraction)
Enter a number only.

Reported solubility (mole fraction), compound `Cc1n[nH]c(=S)s1` : ____
0.0153

----------
- Condition Label: in methyl acetate, 283.15 K
Value Kind: solubility (mole fraction)
Enter a number only.

Reported solubility (mole fraction), molecule `Cc1n[nH]c(=S)s1` : ____
0.0167

----------
- Condition Label: in n-pentyl acetate, 283.15 K
Value Kind: solubility (mole fraction)
Enter a number only.

Reported solubility (mole fraction), compound `Cc1n[nH]c(=S)s1` : ____
0.0117

----------
- Condition Label: in n-propanol, 308.15 K
Value Kind: solubility (mole fraction)
Enter a number only.

Reported solubility (mole fraction), compound `Cc1n[nH]c(=S)s1` : ____
0.0243

----------
- Condition Label: in n-propyl acetate, 318.15 K
Value Kind: solubility (mole fraction)
Enter a number only.

Reported solubility (mole fraction), compound `Cc1n[nH]c(=S)s1` : ____
0.033
